PROTOCOL DESCRIPTION: qHTS assay to identify small molecule antagonists of the estrogen related receptor (ERR) signaling pathway from Tox21 library - cell viability counter screen (AID 1224834); further: nearly all actives have a fitted effect of over 30% in size; further: potency means the concentration at half of the fitted maximal effect
CONDITION NOTES: ERR reporter cells viability, CellTiter-Fluor, 17.5 h; series mostly up to 92.4 µM
Inconclusive results are not listed. Activity calls are given as the source filed them. The call rests on the fitted dose curve; in most records, active means well fitted cell-killing curve with a large enough effect in the repeat runs; inconclusive means weak or mixed curves; inactive means flat fitted curve, though single readings scatter.
TEST READOUT: Potency

Consider the reported Potency for these molecules:
Cc1ccco1 | inactive
CCCCN(CCN(CCCC)C(=O)N1CCOCC1)C(=O)N1CCOCC1 | inactive
CN1C(=O)OC(C)(C)C1=O | inactive
C[C@]1(Cn2ccnn2)[C@H](C(=O)O)N2C(=O)C[C@H]2S1(=O)=O | inactive
CCCCCC[C@@H](O)C/C=C\CCCCCCCC(=O)OCC(O)CO (some centres undefined) | inactive

Give Potency for CC(=O)NC1(c2cccc(F)c2)CCN(CC[C@@]2(c3ccc(Cl)c(Cl)c3)CN(c3ccccc3)C(=O)CO2)CC1
54.6 µM (active)

Supply Potency value. Item: CCOc1ccccc1O[C@H](c1ccccc1)[C@H]1CNCCO1
inactive

Complete the entry with Potency for Cc1cccc(O)c1N
27.6 µM (active)

Indicate its recorded Potency; the molecule in question is O=C(O)CCc1nc(-c2ccccc2)c(-c2ccccc2)o1
inactive

====

PROTOCOL DESCRIPTION: qHTS assay to identify small molecule agonists of the sonic hedgehog signaling (Shh) pathway (AID 1259368);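 further: NIH/3T3-derived 3T3Gli1-Luc cells carrying a stable Gli1-driven firefly luciferase reporter; nearly all actives have a fitted effect of over 15% in size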
CONDITION NOTES: NIH/3T3 Gli1-Luc reporter, luciferase, 24 h; series mostly up to 92.4 µM
The source made the active and inactive calls. The call rests on the fitted dose curve.
// one of true (1) (active), false (0) (inactive), no free text

Nc1nc2ccc([N+](=O)[O-])cc2s1 | false (0)

Recorded test outcome, item CC=C(Cl)Cl
false (0)

Look up the recorded call for OC(CCN1CCCC1)(c1ccccc1)C1CCCCC1 (stereo not given) in this test.
false (0)

====

PROTOCOL DESCRIPTION: qHTS assay to identify small molecule antagonists of the estrogen receptor alpha (ER-alpha) signaling pathway using the BG1 cell line - cell viability counter screen (AID 743081);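 further: compound given together with 17beta-estradiol as the ER stimulus; nearly all actives have a fitted effect of over 45% in size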
CONDITION NOTES: BG1Luc4E2 viability, CellTiter-Fluor, 22 h; series mostly up to 70.3 µM
Results filed as inconclusive are left out. Activity calls are given as the source filed them. The call rests on the fitted dose curve; in most records, active means well fitted cell-killing curve with a large enough effect in the repeat runs; inconclusive means weak or mixed curves, or effect the other way; inactive means flat fitted curve, though single readings scatter.
Hello, when you answer, please use one of the following outcomes: true (1) (active), false (0) (inactive)

Answered examples (4):
CCOC(C)=O | false (0)
O=c1c(O)c(-c2ccc(O)cc2)oc2cc(O)cc(O)c12 | false (0)
C=CC(=O)[O-].C=CC(=O)[O-].[Zn+2] | false (0)
C[C@]12CC[C@@H]3c4ccc(O)cc4CC[C@H]3[C@@H]1CC[C@@H]2OC(=O)CCC1CCCC1 | false (0)

What outcome does the record of this test show for CCCCCCCC/C=C\CCCCCCCCO ?
false (0)

Hi, do you know how CN1CCCC(CC2c3ccccc3Sc3ccccc32)C1 (stereo not drawn) came out in this test?
false (0)

What is the recorded call for this compound in the test? C/C=C(/C(=C/C)c1ccc(O)cc1)c1ccc(O)cc1
false (0)

Query: recorded result category for COc1cc(C(=O)NCCCCCC(=O)O)cc(OC)c1OC in this test
false (0)

For this compound, state the assay outcome: O[C@@H]1CO[C@H]2[C@@H]1OC[C@@H]2O
false (0)

Returns: the outcome recorded for CC=C(Cl)Cl in this assay.
false (0)

Give the logged outcome of this assay for the following compound: Clc1ccc(Nc2nnc(Cc3ccncc3)c3ccccc23)cc1
false (0)

Could you please tell me the result logged for Nc1ccc(N=Nc2ccccc2)c(N)c1 in this assay?
true (1)

Which result was noted for this compound in the test: CCC(C)COC(C)=O (stereo not drawn)
false (0)

Recorded test call requested for Cc1ccc(CO)cc1
false (0)

Just curious, what result did C[C@@H]1CC(=O)NN=C1c1ccc(NN=C(C#N)C#N)cc1 get here?
true (1)
